Test system: Escherichia coli CMY-DHA
test.method.notes: MIC against CMY-DHA producing strains, compound alone
Type: cell-based
protocol.conditions: strain of row r30
endpoint.name: MIC (mg/L)
Enter your answer as a number in mg/L; do not include the unit.

Use the examples below as a reference point.
1) Nc1nc(/C(=N/OC2(C(=O)O)CC2)C(=O)N[C@H]2CON(C3(C(=O)O)C[C@H](N4C(=O)c5cc(O)c(O)cc5C4=O)C(=O)O3)C2=O)cs1 (stereo partly shown) [Cmpd 1]; 0.5
2) Nc1nc(/C(=N/OC2(C(=O)O)CCOCC2)C(=O)N[C@H]2CON(C3(C(=O)O)C[C@H](N4C(=O)c5cc(O)c(O)nc5C4=O)C(=O)O3)C2=O)cs1 (stereo partly shown) [Cmpd 26]; 1
3) Nc1nc(/C(=N/OC2(C(=O)O)CCC(F)(F)CC2)C(=O)N[C@H]2CON(C3(C(=O)O)C[C@H](N4C(=O)c5cc(O)c(O)cc5C4=O)C(=O)O3)C2=O)cs1 (stereo partly shown) [Cmpd 10]; 0.25
4) Nc1nc(/C(=N/OC2(C(=O)O)CC2)C(=O)N[C@H]2CON(C3(C(=O)O)C[C@H](N4C(=O)c5cc(O)c(O)cc5C4=O)C(=O)O3)C2=O)ns1 (stereo partly shown) [Cmpd 18]; 0.5
5) CC(C)(O/N=C(\C(=O)N[C@@H]1C(=O)N2C(C(=O)[O-])=C(C[n+]3ccccc3)CS[C@H]12)c1csc(N)n1)C(=O)O [Ceftazidime, ceftazidime, reference compound]; 4

Sample Nc1nc(/C(=N/OC2(C(=O)O)CCOCC2)C(=O)N[C@H]2CON(C3(C(=O)O)C[C@H](N4C(=O)c5cc(O)c(O)cc5C4=O)C(=O)O3)C2=O)cs1 (stereo partly shown) [Cmpd 8] ; MIC observed: 0.25

Sample Nc1nc(/C(=N/OC2(C(=O)O)CC2)C(=O)N[C@H]2CON(C3(C(=O)O)C[C@H](N4Cc5cc(O)c(O)cc5C4=O)C(=O)O3)C2=O)cs1 (stereo partly shown) [Cmpd 28] ; MIC observed: 1

* * *

MIC by entry:
Tested on: Pseudomonas aeruginosa OprD negative
test.method.notes: MIC, CLSI broth microdilution
Format: cell-based
Enter your answer as a number in µg/mL; do not include the unit.

1) Nc1nc(/C(=N/OC2(C(=O)O)CCOCC2)C(=O)N[C@H]2CON(C3(C(=O)O)C[C@H](N4C(=O)c5cc(O)c(O)nc5C4=O)C(=O)O3)C2=O)cs1 (stereo partly shown) [Cmpd 26]; 2

Sample Nc1nc(/C(=N/OC2(C(=O)O)CCC2)C(=O)N[C@H]2CON(C3(C(=O)O)C[C@H](N4C(=O)c5cc(O)c(O)cc5C4=O)C(=O)O3)C2=O)cs1 (stereo partly shown) [Cmpd 4] ; MIC observed: 1

Sample Nc1nc(/C(=N/OC2(C(=O)O)CCC(F)(F)CC2)C(=O)N[C@H]2CON(C3(C(=O)O)C[C@H](N4C(=O)c5cc(O)c(O)cc5C4=O)C(=O)O3)C2=O)cs1 (stereo partly shown) [Cmpd 10] ; MIC observed: 0.25

Sample Nc1nc(/C(=N/OC2(C(=O)O)CC3CCC(C2)O3)C(=O)N[C@H]2CON(C3(C(=O)O)C[C@H](N4Cc5cc(O)c(O)cc5C4=O)C(=O)O3)C2=O)cs1 (stereo partly shown) [Cmpd 30] ; MIC observed: 1

Sample Nc1nc(/C(=N/OC2(C(=O)O)COC2)C(=O)N[C@H]2CON(C3(C(=O)O)C[C@H](N4C(=O)c5cc(O)c(O)cc5C4=O)C(=O)O3)C2=O)cs1 (stereo partly shown) [Cmpd 5] ; MIC observed: 2

* * *

Tested on: Klebsiella pneumoniae KPC-3
test.method.notes: MIC, CLSI broth microdilution
Type: cell-based
protocol.conditions: KPC3, KPC-3, read-out: MIC
endpoint.name: MIC (µg/mL)
Enter your answer as a number in µg/mL; do not include the unit.

Use the examples below as a reference point.
1. Nc1nc(/C(=N/OC2(C(=O)O)CC2)C(=O)N[C@H]2CON(C3(C(=O)O)C[C@H](N4Cc5cc(O)c(O)cc5C4=O)C(=O)O3)C2=O)cs1 (some centres unmarked) [Cmpd 28]; 0.25
2. Nc1nc(/C(=N/OC2(C(=O)O)CCC(F)(Cl)CC2)C(=O)N[C@H]2CON(C3(C(=O)O)C[C@H](N4C(=O)c5cc(O)c(O)cc5C4=O)C(=O)O3)C2=O)cs1 (some centres unmarked) [Cmpd 11]; 0.06
3. Nc1nc(/C(=N/OC2(C(=O)O)CNC2)C(=O)N[C@H]2CON(C3(C(=O)O)C[C@H](N4C(=O)c5cc(O)c(O)cc5C4=O)C(=O)O3)C2=O)cs1 (some centres unmarked) [Cmpd 7]; 0.5

For the next question, use this molecule.
Sample Nc1nc(/C(=N/OC2(C(=O)O)COC2)C(=O)N[C@H]2CON(C3(C(=O)O)C[C@H](N4C(=O)c5cc(O)c(O)cc5C4=O)C(=O)O3)C2=O)cs1 (some centres unmarked) [Cmpd 5] ; MIC observed: 0.03

* * *

System: Klebsiella aerogenes VIM-1, SHV-12
endpoint.name: MIC (µg/mL)
Enter your answer as a number in µg/mL; do not include the unit.

Use the examples below as a reference point.
1. CN1CCC(O/N=C(\C(=O)N[C@H]2CON(C3(C(=O)O)C[C@H](N4C(=O)c5cc(O)c(O)cc5C4=O)C(=O)O3)C2=O)c2csc(N)n2)(C(=O)O)CC1 (stereo partly shown); 0.5
2. Nc1nc(/C(=N/OC2(C(=O)O)CCC(F)(F)CC2)C(=O)N[C@H]2CON(C3(C(=O)O)C[C@H](N4C(=O)c5cc(O)c(O)cc5C4=O)C(=O)O3)C2=O)cs1 (stereo partly shown); 0.12
3. Nc1nc(/C(=N/OC2(C(=O)O)CCC(F)(Cl)CC2)C(=O)N[C@H]2CON(C3(C(=O)O)C[C@H](N4C(=O)c5cc(O)c(O)cc5C4=O)C(=O)O3)C2=O)cs1 (stereo partly shown); 0.12
4. Nc1nc(/C(=N/OC2(C(=O)O)CCOCC2)C(=O)N[C@H]2CON(C3(C(=O)O)C[C@H](N4C(=O)c5cc(O)c(O)cc5C4=O)C(=O)O3)C2=O)cs1 (stereo partly shown); 2
5. Nc1nc(/C(=N/OC2(C(=O)O)CC3CCC(C2)O3)C(=O)N[C@H]2CON(C3(C(=O)O)C[C@H](N4Cc5cc(O)c(O)cc5C4=O)C(=O)O3)C2=O)cs1 (stereo partly shown); 0.12

Sample Nc1nc(/C(=N/OC2(C(=O)O)CC2)C(=O)N[C@H]2CON(C3(C(=O)O)C[C@H](N4C(=O)c5cc(O)c(O)cc5C4=O)C(=O)O3)C2=O)ns1 (stereo partly shown) ; MIC observed: 0.5

Sample Nc1nc(/C(=N/OC2(C(=O)O)CCC(Cl)(Cl)CC2)C(=O)N[C@H]2CON(C3(C(=O)O)C[C@H](N4C(=O)c5cc(O)c(O)cc5C4=O)C(=O)O3)C2=O)cs1 (stereo partly shown) ; MIC observed: 0.5

Sample Nc1nc(/C(=N/OC2(C(=O)O)CCOCC2)C(=O)N[C@H]2CON(C3(C(=O)O)C[C@H](N4C(=O)c5cc(O)c(O)nc5C4=O)C(=O)O3)C2=O)cs1 (stereo partly shown) ; MIC observed: 0.25

Sample Nc1nc(/C(=N/OC2(C(=O)O)CCOCC2)C(=O)N[C@H]2CON(C3(C(=O)O)C[C@H](N4Cc5cc(O)c(O)cc5C4=O)C(=O)O3)C2=O)cs1 (stereo partly shown) ; MIC observed: 0.25

Sample Nc1nc(/C(=N/OC2(C(=O)O)CC2)C(=O)N[C@H]2CON(C3(C(=O)O)C[C@H](N4Cc5cc(O)c(O)cc5C4=O)C(=O)O3)C2=O)cs1 (stereo partly shown) ; MIC observed: 0.12

* * *

System: Klebsiella pneumoniae KPC-2
MIC by entry:
Enter your answer as a number in µg/mL; do not include the unit.

Bench note, Klebsiella pneumoniae KPC-2: entry Nc1nc(/C(=N/OC2(C(=O)O)CC2)C(=O)N[C@H]2CON(C3(C(=O)O)C[C@H](N4Cc5cc(O)c(O)cc5C4=O)C(=O)O3)C2=O)cs1 (some centres unmarked) , its MIC = 0.0149

* * *

System: Pseudomonas aeruginosa OprD negative
test.method.notes: MIC, CLSI broth microdilution
Assay type: cell-based
Experimental: Gram-negative and Gram-positive bacterial strains used during the in vitro minimum inhibitory concentration (MIC) determination were obtained either from the American Type Culture Collection (ATCC) or from clinical specimens. […] Isolates were sub-cultured onto appropriate media and stocked in skim milk at −80° C. […] MICs for comparator agents were determined using custom-designed, in-house prepared 96-well broth microdilution panels.
MIC by entry:
Enter your answer as a number in mg/L; do not include the unit.

Use the examples below as a reference point.
1) Nc1nc(/C(=N/OC2(C(=O)O)CC2)C(=O)N[C@H]2CON(C3(C(=O)O)C[C@H](N4C(=O)c5cc(O)c(O)cc5C4=O)C(=O)O3)C2=O)cs1 (some centres unmarked); 0.12
2) CC(C)(O/N=C(\C(=O)N[C@@H]1C(=O)N2C(C(=O)[O-])=C(C[n+]3ccccc3)CS[C@H]12)c1csc(N)n1)C(=O)O [Ceftazidime, ceftazidime, reference compound]; 2
3) Nc1nc(/C(=N/OC2(C(=O)O)CCOCC2)C(=O)N[C@H]2CON(C3(C(=O)O)C[C@H](N4Cc5cc(O)c(O)cc5C4=O)C(=O)O3)C2=O)cs1 (some centres unmarked); 0.5
4) Nc1nc(/C(=N/OC2(C(=O)O)CCC(F)(Cl)CC2)C(=O)N[C@H]2CON(C3(C(=O)O)C[C@H](N4C(=O)c5cc(O)c(O)cc5C4=O)C(=O)O3)C2=O)cs1 (some centres unmarked); 0.25
5) Nc1nc(/C(=N/OC2(C(=O)O)CC3CCC(C2)O3)C(=O)N[C@H]2CON(C3(C(=O)O)C[C@H](N4C(=O)c5cc(O)c(O)nc5C4=O)C(=O)O3)C2=O)cs1 (some centres unmarked); 2
6) Nc1nc(/C(=N/OC2(C(=O)O)CCOCC2)C(=O)N[C@H]2CON(C3(C(=O)O)C[C@H](N4C(=O)c5cc(O)c(O)cc5C4=O)C(=O)O3)C2=O)cs1 (some centres unmarked); 0.12
7) Nc1nc(/C(=N/OC2(C(=O)O)CCC(Cl)(Cl)CC2)C(=O)N[C@H]2CON(C3(C(=O)O)C[C@H](N4C(=O)c5cc(O)c(O)cc5C4=O)C(=O)O3)C2=O)cs1 (some centres unmarked); 0.25
8) CC(C)(O/N=C(\C(=O)N[C@H]1CON(C2(C(=O)O)C[C@H](N3Cc4cc(O)c(O)cc4C3=O)C(=O)O2)C1=O)c1csc(N)n1)C(=O)O (some centres unmarked); 0.5

Sample Nc1nc(/C(=N/OC2(C(=O)O)CC2)C(=O)N[C@H]2CON(C3(C(=O)O)C[C@H](N4Cc5cc(O)c(O)cc5C4=O)C(=O)O3)C2=O)cs1 (some centres unmarked) ; MIC observed: 0.5

Sample Nc1nc(/C(=N/OC2(C(=O)O)CC2)C(=O)N[C@H]2CON(C3(C(=O)O)C[C@H](N4C(=O)c5cc(O)c(O)cc5C4=O)C(=O)O3)C2=O)ns1 (some centres unmarked) ; MIC observed: 0.12

Sample CC(C)(O/N=C(\C(=O)N[C@H]1CON(C2(C(=O)O)C[C@H](N3C(=O)c4cc(O)c(O)nc4C3=O)C(=O)O2)C1=O)c1csc(N)n1)C(=O)O (some centres unmarked) ; MIC observed: 0.12

Sample Nc1nc(/C(=N/OC2(C(=O)O)CC3CCC(C2)O3)C(=O)N[C@H]2CON(C3(C(=O)O)C[C@H](N4C(=O)c5cc(O)c(O)cc5C4=O)C(=O)O3)C2=O)cs1 (some centres unmarked) ; MIC observed: 0.25
